Reference for the values: paper PMC5962708

molecular target: PDE10A catalytic domain (residues 446-789) (Homo sapiens); construct: coding the catalytic domain (residues 446-789); inferred from the pET15b vector and the Ni-NTA purification) (N); made in house; host or cells: E. coli BL21 (Codonplus, Stratagene); test: PDE10A enzymatic assay (3H-cGMP hydrolysis, scintillation counting); type: biochemical; settings: compound concentration 1 μM; read-out: PDE10 inhibitory assay Inhibition ratio (1 μM) (%)
Sequence (Q9Y233 712-1055): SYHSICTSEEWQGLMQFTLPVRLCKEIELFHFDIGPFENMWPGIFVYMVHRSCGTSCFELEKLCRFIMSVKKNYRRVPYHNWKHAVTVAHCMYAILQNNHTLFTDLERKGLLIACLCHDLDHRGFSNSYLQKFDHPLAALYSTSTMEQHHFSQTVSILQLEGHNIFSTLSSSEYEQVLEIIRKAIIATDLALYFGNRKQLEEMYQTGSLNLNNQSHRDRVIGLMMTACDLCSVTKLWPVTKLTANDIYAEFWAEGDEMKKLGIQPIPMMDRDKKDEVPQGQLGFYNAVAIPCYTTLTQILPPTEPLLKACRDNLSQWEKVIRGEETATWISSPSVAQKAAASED
Recorded inhibition at 1 µM values for a group of compounds are listed next.
Could you give me the number in %? Just the number is fine.

// below: answered compounds
COc1ccc2[nH]cc(CC(C)Nc3ncnc4cc(OC)c(OC)cc34)c2c1 (stereo not drawn) [Compound 11d] :: 56
COc1cc2ncnc(N3CCOCC3)c2cc1OC(=O)C=Cc1ccc(O)cc1 [Compound 8b] :: 26
COc1cc2ncnc(NCCc3c[nH]c4ccc(C)cc34)c2cc1OC [Compound 11g] :: 64

For COc1ccc2[nH]cc(CCNc3ncnc4cc(OC)c(OC)cc34)c2c1 [Compound 11c] , what is its reported inhibition at 1 µM?
49

Moving on to COc1cc2ncnc(N3CCOCC3)c2cc1OC(=O)CCCCC1CCSS1 (stereo not drawn) [Compound 8c]
24

Same lookup for COc1cc2ncnc(NCCc3nc4ccccc4[nH]3)c2cc1OC [Compound 13] , please.
80

Follow-up item: COc1cc2ncnc(NC(C)CCc3c[nH]c4ccccc34)c2cc1OC (stereo not drawn) [Compound 12]
84

Similarly, COc1cc2ncnc(NCCc3c[nH]c4ccccc34)c2cc1OC [Compound 11a] ?
72

What about COc1cc2ncnc(NCCc3c[nH]c4cc(F)ccc34)c2cc1OC [Compound 11f] ?
78

====

molecular target: PDE10A catalytic domain (residues 446-789) (Homo sapiens); construct: coding the catalytic domain (residues 446-789); inferred from the pET15b vector and the Ni-NTA purification) (N); made in house; host or cells: E. coli BL21 (Codonplus, Stratagene); test: PDE10A enzymatic assay (3H-cGMP hydrolysis, scintillation counting); type: biochemical; details: compound concentration 1 μM; read-out: PDE10 inhibitory assay Inhibition ratio (1 μM) (%)
Parameter Measured: inhibition at 1 µM (%)
Give a bare numeral; the unit % is implied.

# value lookup — system PDE10A catalytic domain (residues 446-789) (Homo sapiens), readout inhibition at 1 µM, item COc1cc2ncnc(NC(C)Cc3c[nH]c4ccccc34)c2cc1OC (stereo not shown) [Compound 11b]
66

What about COc1cc2ncnc(NCCc3c[nH]c4ccc(O)cc34)c2cc1OC [Compound 11e] ?
76

And `COc1cc2ncnc(N3CCOCC3)c2cc1OCCc1c[nH]c2ccccc12` ?
57

Param item: COc1cc2ncnc(NCCc3c[nH]c4ccc(Br)cc34)c2cc1OC [Compound 11h]
66

====

Below, each of the compounds is paired with its reported ORAC (oxygen radical absorbance capacity) value.
experiment: Antioxidant assay: oxygen radical absorbance capacity fluorescein (ORAC-FL) method; conditions: AAPH 12 mM, fluorescein 150 nM, pH 7.4, 37°C, samples 1–10 μM
Value expressed in trolox equivalents; do not type the unit.

Consider the following illustrative entries.
COc1cc2ncnc(NCCc3nc4ccccc4[nH]3)c2cc1OC :: 0.15
COc1cc2ncnc(NCCc3c[nH]c4ccc(C)cc34)c2cc1OC [Compound 11g] :: 1.0
COc1cc2ncnc(NCCc3c[nH]c4ccccc34)c2cc1OC [Compound 11a] :: 1.3
COc1cc2ncnc(NC(C)Cc3c[nH]c4ccccc34)c2cc1OC (stereo not drawn) [Compound 11b] :: 1.5
COc1cc2ncnc(NCCc3c[nH]c4ccc(Br)cc34)c2cc1OC [Compound 11h] :: 1.9

Please give the measured ORAC (oxygen radical absorbance capacity) for this compound: COc1cc2ncnc(N3CCOCC3)c2cc1OC(=O)CCCCC1CCSS1 (stereo not drawn)
0.3
